Entries and their measured pKd follow.
Target or test system: T1, human PILRA, c-term His-Avi tag (human, UniProt Q9UKJ1 20-197, limits assumed)
T1 construct: not shown: C-terminal His-Avi tag
T1 sequence (Q9UKJ1 20-197 limits assumed): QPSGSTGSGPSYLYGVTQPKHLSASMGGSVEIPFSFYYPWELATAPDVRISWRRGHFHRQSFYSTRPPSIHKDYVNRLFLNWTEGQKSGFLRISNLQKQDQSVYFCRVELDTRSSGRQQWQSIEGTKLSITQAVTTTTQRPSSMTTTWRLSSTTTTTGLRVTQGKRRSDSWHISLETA
Assay method text: SPR (Biacore), antibody captured, PILRA as analyte
As a rule, pKd stands for the negative log10 of the concentration, concentration in M.

// worked examples, pKd included
>  <Binder>
A5 (antibody, V domains shown, phage campaign) VH: QVQLVQSGAEVKKPGSSVKVSCKASGYTFTDYYMNWVRQAPGQGLEWMGGIIPIFGTADYAQRFQGRVTITADESTSTAYMELSSLRSEDTAVYYCARDAGYYGMDVWGQGTLVTVSS VL: EIVMTQSPATLSVSPGERATLSCRASQSVSNYLAWYQQKPGQAPRLLIYGASTRATGIPARFSGSGSGTEFTLTISSLQSEDFAVYYCQQFDDLPLTFGPGTKVEIK

>  <pKd>
7.49

$$$$
>  <Binder>
E21 (antibody, V domains shown, phage campaign) VH: QVQLVQSGAEVKKPGSSVKVSCKASGYTFSNYDINWVRQAPGQGLEWMGGIIPIFGTANYALKFQGRVTITADESTSTAYMELSSLRSEDTAVYYCARGGPWLYFDYWGQGTLVTVSS VL: DIQMTQSPSSLSASVGDRVTITCRASQSISTYLNWYQQKPGKAPKLLIYAASTLQSGVPSRFSGSGSGTDFTLTISSLQPEDFATYYCQQSYSSPLTFGQGTKLEIK

>  <pKd>
7.29

$$$$
>  <Binder>
E5 (antibody, V domains shown) VH: QVQLVQSGAEVKKPGSSVKVSCKASGYTFTSYGINWVRQAPGQGLEWMGWINPNSGDTLYAQNFQGRVTITADESTSTAYMELSSLRSEDTAVYYCARGPEPYWYFDLWGRGTLVTVSS VL: EIVMTQSPATLSVSPGERATLSCRASQNIDSRFLAWYQQKPGQAPRLLIYGASTRATGIPARFSGSGSGTEFTLTISSLQSEDFAVYYCQQSFSTPLTFGGGTKVEIK

>  <pKd>
7.12

$$$$

Documented pKd of B4 (antibody, V domains shown, B-cell cloning campaign (mice)) VH: EVKLVESGGGLVKPGGSLKLSCTASGFTFSNYAMSWVRQTPEKRLEWVASISGGGSTYYPDSVKGRFTIAIDYARNILYLQMSSLRSEDTAIYYCTRGVSYGDYAMDYWGQGTSVTVSS VL: ETTVTQSPASLSMAIGEKVTIRCVTSTDIDDDMNWYQQKPGGPPKLLISEGNTLRPGVPSRFSSSGYGSDFVFTIEDMLSEDVADYYCLQSDNLPLTFGAGTKVELK : 7.05

Reference for the values: patent US20240425587A1
